Where do these numbers come from? They come from patent US8188069B2.

tested on: β-amyloid peptide production in 293 751 SWE cells (HEK293 transfected with APP751 Swedish mutation); assay: In vitro inhibition of β-amyloid production (ELISA, 293 751 SWE cells); type: cell-based, human; settings: Homo sapiens, HEK293, 2 h, two hour incubation, n = 3
Result type: pIC50
Answers are plain numbers, as −log10 of the molar value.

Given the compound CC(C)[C@H](O)C(=O)N[C@@H](C)C(=O)N[C@H]1C=C(c2ccccc2)C=CN(C)C1=O (single isomer, unassigned) [1 (diasteromer 2)] , write its reported pIC50.
8.30
